src = paper PMC6858373

subjectOfTest: FGF14:Nav1.6 C-tail complex (Homo sapiens, UniProt Q92915+Q9UQD0)
Construct: polymerase chain reaction (PCR) amplification of the FGF14 open reading frame (nt 1–855); C-terminal fragment of Nav1.6 (amino acids 1763–1976) fused with CD4ΔC-tail (amino acids 1–395); expressed in transfected cells
Sequence (Q92915 1-252 isoform Q92915-2): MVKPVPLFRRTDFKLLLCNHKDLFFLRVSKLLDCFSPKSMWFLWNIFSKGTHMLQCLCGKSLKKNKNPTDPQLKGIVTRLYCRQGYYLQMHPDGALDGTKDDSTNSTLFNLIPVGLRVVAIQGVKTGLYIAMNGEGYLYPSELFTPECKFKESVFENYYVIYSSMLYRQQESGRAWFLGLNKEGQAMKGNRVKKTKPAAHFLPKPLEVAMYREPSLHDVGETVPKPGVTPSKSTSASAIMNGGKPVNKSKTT
Sequence (Q9UQD0 1763-1976 limits assumed): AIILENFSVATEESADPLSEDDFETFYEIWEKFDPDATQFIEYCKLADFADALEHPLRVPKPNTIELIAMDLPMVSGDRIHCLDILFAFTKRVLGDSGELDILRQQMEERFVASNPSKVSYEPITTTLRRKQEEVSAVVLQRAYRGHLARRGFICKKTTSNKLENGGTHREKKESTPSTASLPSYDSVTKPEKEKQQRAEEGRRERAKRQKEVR
methodDescription: Split-luciferase complementation assay (LCA) in Clone V double stable HEK293 cells
Type: cell-based
recordedConditions: 30 µM; 384-well; average of primary screening (n = 2); vs on-plate 0.3% DMSO
measure: Z-score (LCA primary screening)

# compound, measure, recordedNumber
data = [
    ("CN(C)C[C@@H]1CCn2cc(c3ccccc32)C2=C(C(=O)NC2=O)c2cn(c3ccccc23)CCO1 [LY 333531, reference compound]", "Z-score (LCA primary screening)", "−5.33"),
    ("O=C(O)CCCc1ccc(N(CCCl)CCCl)cc1 [Chlorambucil, reference compound]", "Z-score (LCA primary screening)", 12.39),
    ("Cc1ccc([N+](=O)[O-])cc1S(=O)(=O)N(C)/N=C/c1cnc2ccc(Br)cn12 [PIK 75, reference compound]", "Z-score (LCA primary screening)", "−5.01"),
    ("O=S(=O)(NCCNC/C=C/c1ccc(Br)cc1)c1cccc2cnccc12 [H-89, reference compound]", "Z-score (LCA primary screening)", "−6.81"),
    ("O=C(NOCC1CC1)c1ccc(F)c(F)c1Nc1ccc(I)cc1Cl [CI 1040, reference compound]", "Z-score (LCA primary screening)", "−4.34"),
    ("CNC(=O)c1cc(Oc2ccc(NC(=O)Nc3ccc(Cl)c(C(F)(F)F)c3)cc2)ccn1 [Sorafenib, reference compound]", "Z-score (LCA primary screening)", "−7.62"),
    ("CC[C@]1(O)C[C@H]2CN(CCc3c([nH]c4ccccc34)[C@@](C(=O)OC)(c3cc4c(cc3OC)N(C=O)[C@H]3[C@@](O)(C(=O)OC)[C@H](OC(C)=O)[C@]5(CC)C=CCN6CC[C@]43[C@@H]65)C2)C1 [Vincristine, reference compound]", "Z-score (LCA primary screening)", 7.99),
]
